The measured values listed here are drawn from patent US9750698B2.

method: Repeat-dose dose-escalation study of controlled release anagrelide: pharmacokinetics
Assay type: in vivo, human
conditions.used: human, plasma, oral, 0.3 mg, median; cohort 4 (0.3 mg); day 1
result.type: Tmax (h)
Quick reminder: number only, in h, skip the unit.

q: Sample O=C1CN2Cc3c(ccc(Cl)c3Cl)N=C2N1 [anagrelide] — what was its Tmax?
a: 3.61

====

method: Repeat-dose dose-escalation study of controlled release anagrelide: pharmacokinetics
Assay type: in vivo, human
conditions.used: human, plasma, oral, 0.2 mg, dose-normalized to 0.2 mg; cohort 1 (0.2 mg); day 1; read-out: Cmax
Protocol: A placebo-controlled, double-blind repeat-dose, dose-escalation, sequential cohort study was conducted to evaluate the pharmacokinetics and pharmacodynamics of a controlled release composition of anagrelide as described herein in healthy subjects. […] Platelet count, collagen-induced platelet aggregation, ADP induced platelet aggregation, template bleeding time, AUC0-t, AUC0-∞, Cmax, Cmin, t1/2, λZ and tmax were determined. […]
result.type: Cmax (ng/mL)
Response body: numeric value in ng/mL, unit text excluded.

q: Could you share which Cmax value was measured for O=C1CN2Cc3c(ccc(Cl)c3Cl)N=C2N1 [anagrelide] ?
a: 0.334

====

method: Repeat-dose dose-escalation study of controlled release anagrelide: pharmacokinetics
Assay type: in vivo, human
conditions.used: human, plasma, oral, 0.4 mg, cohort 2 (0.4 mg); day 1
result.type: half-life

q: # get_value(readout='half-life', item= O=C1CN2Cc3c(ccc(Cl)c3Cl)N=C2N1 [anagrelide] )
a: 56.1 h

====

method: Repeat-dose dose-escalation study of controlled release anagrelide: pharmacokinetics
Type: in vivo, human
conditions.used: human, plasma, oral, 0.2 mg, median; cohort 1 (0.2 mg); day 1
result.type: Tmax (h)
Unit h implied. Number only.

q: # get_value(readout='Tmax', item= O=C1CN2Cc3c(ccc(Cl)c3Cl)N=C2N1 [anagrelide] )
a: 4

====

method: Repeat-dose dose-escalation study of controlled release anagrelide: pharmacokinetics
Assay type: in vivo, human
conditions.used: human, plasma, oral, 0.2 mg, dose-normalized to 0.2 mg; cohort 1 (0.2 mg); day 23; read-out: AUC0-τ
result.type: AUC (ng·h/mL)
Answer format: numeric, ng·h/mL implied, no suffix.

q: Please report the recorded AUC for O=C1CN2Cc3c(ccc(Cl)c3Cl)N=C2N1 [anagrelide] .
a: 2

====

method: Repeat-dose dose-escalation study of controlled release anagrelide: pharmacokinetics
Type: in vivo, human
conditions.used: human, plasma, oral, 0.2 mg, dose-normalized to 0.2 mg; cohort 1 (0.2 mg); day 23; read-out: Cmax
Procedure: A placebo-controlled, double-blind repeat-dose, dose-escalation, sequential cohort study was conducted to evaluate the pharmacokinetics and pharmacodynamics of a controlled release composition of anagrelide as described herein in healthy subjects. […] Platelet count, collagen-induced platelet aggregation, ADP induced platelet aggregation, template bleeding time, AUC0-t, AUC0-∞, Cmax, Cmin, t1/2, λZ and tmax were determined. […]
result.type: Cmax (ng/mL)
All answers are understood in ng/mL, so give the number only.

q: Which value of Cmax has been reported for O=C1CN2Cc3c(ccc(Cl)c3Cl)N=C2N1 [anagrelide] in the records?
a: 0.354

====

method: Repeat-dose dose-escalation study of controlled release anagrelide: pharmacokinetics
Assay type: in vivo, human
conditions.used: human, plasma, oral, 0.2 mg, cohort 1 (0.2 mg); day 1
result.type: half-life
Write the quantity with the unit trailing the number.

q: State the recorded half-life for this entry: O=C1CN2Cc3c(ccc(Cl)c3Cl)N=C2N1 [anagrelide]
a: 22.9 h
